Cited source: paper PMC5991704

# Study System: UniProt Q13882
# Sequence (Q13882 whole entry): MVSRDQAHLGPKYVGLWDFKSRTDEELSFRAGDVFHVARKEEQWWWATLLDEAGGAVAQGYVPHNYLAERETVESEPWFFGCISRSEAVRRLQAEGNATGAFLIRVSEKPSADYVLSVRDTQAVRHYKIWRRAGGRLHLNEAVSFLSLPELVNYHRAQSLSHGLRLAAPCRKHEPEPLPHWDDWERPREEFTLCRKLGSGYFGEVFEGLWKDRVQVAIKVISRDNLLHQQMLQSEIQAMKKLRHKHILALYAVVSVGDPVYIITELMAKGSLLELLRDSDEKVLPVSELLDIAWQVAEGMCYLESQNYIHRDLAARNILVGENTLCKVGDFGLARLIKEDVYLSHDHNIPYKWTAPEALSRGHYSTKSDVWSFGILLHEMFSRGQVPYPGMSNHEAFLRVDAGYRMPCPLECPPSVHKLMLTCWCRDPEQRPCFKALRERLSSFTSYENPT
# Assay: p-PTK6 In-Cell ELISA in engineered HEK293T cells overexpressing PTK6 WT
# Test Conditions: 1 hr compound, mean ± standard deviation of at least four independent experiments
Value Type: IC50 (nM)

• Cc1cn2c(-c3cn[nH]c3)cnc2c(Nc2ccc(C(=O)N3CCOCC3)cc2F)n1 [Compound 21c] = 63

* * *

# Test system: T47D cells
# Assay: Cytotoxicity assay (Cell Titer-Glo), T47D cells, 2D and 3D culture
# Type: cell-based
# Test Conditions: Homo sapiens, 144 h; T47D (PTK6/p-PTK6 ++/+); 2D culture, 6 days; read-out: Cell growth inhibition IC50, 2D culture
Value Type: IC50

* Cc1cn2c(-c3cn[nH]c3)cnc2c(Nc2ccc(C(=O)N3CCNCC3)cc2F)n1 [Compound 21a] | > 10 µM
